- method: human hepatoma cell viability loss – ATP luminescence, cytotoxicity control for P. falciparum antimalarial project, primary screen (AID 2303)
- stated-conditions: HepG2 viability, 24-48 h, at 10 µM
The source made the active and inactive calls.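 Rule for the calls: active = inhibition above 50%; inactive = the rest.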
Outcome codes: active, inactive

- COc1c(I)cc(Cc2cnc(N)nc2N)cc1I: inactive
- COc1cccc(NC(=O)NCCNc2ccnc(Nc3ccc(F)cc3)n2)c1: inactive
- O=C(NCc1ccccc1)c1nn(CCCN2CCC(N3CCCC3)CC2)cc1-c1ccc(Cl)c(Cl)c1: inactive
- COCCN(C)c1ccc(C(=O)Nc2ccccc2)cc1NS(=O)(=O)Cc1ccccc1: inactive
- CCCN(CCC)CCCNc1ccc(C(=O)Nc2ccc(C)c(F)c2)cc1[N+](=O)[O-]: inactive
- CC(=O)N1N=C(c2ccccc2)Sc2c1nc(-c1ccc(Cl)cc1)n2C(C)=O: inactive
- COc1ccccc1C(C)NCC(=O)Nc1cc(C(F)(F)F)ccc1Cl (stereo not drawn): inactive
- CC(=O)Nc1cccc(C(=O)Nc2ccc(-c3cccc(-c4nc5c(C)cccc5[nH]4)c3)cc2)c1: active
- O=C(NCCCCN1CCC(c2ccc(C(F)(F)F)cc2C(F)(F)F)CC1)c1ccc(NC(=O)c2ccc(Cl)cc2)cc1: inactive
- Cc1cc2ccc(/C=C/C(=O)NC3CCC(CCN4CCc5ccc(C#N)cc5CC4)CC3)cc2[nH]1 (stereo not drawn): inactive
- Cc1nn(-c2ccccc2)nc1C(=O)N(Cc1ccc(-c2ccc(CNCCc3ccc(S(C)(=O)=O)cc3)cn2)cc1)C(C)CN(C)C (stereo not drawn): inactive
- Cc1ccc(S(=O)(=O)N(C)c2ccccc2C(=O)Nc2ccccc2Oc2ccccc2)cc1: inactive
- CC(=O)Nc1ccc(OCCN(Cc2ccccc2OC(F)(F)F)c2ccc(C(F)(F)F)c(C#N)c2)c(Cl)c1: inactive
- CN1CCN(CC(=O)Nc2ccc(-c3csc(-c4nc5ccccc5[nH]4)c3)cc2)CC1: inactive
- Cc1ccc(Nc2ccnc(Nc3ccc(C)c(F)c3)n2)cc1O: inactive
- O=C(CCN(Cc1ccco1)c1nc(-c2ccc(F)cc2)nc2ccccc12)NC1CC1: inactive
- N#Cc1cccc(-c2cccc(C(=O)NC3CCC(CCN4CCc5ccc(C#N)cc5CC4)CC3)c2)c1 (stereo not drawn): inactive
- Nc1nc2c(cnn2CCCCCCCP(=O)(O)O)c(=O)[nH]1: inactive
- Cc1cc(NC(=O)c2ccco2)ccc1OC1CCN(Cc2ccc(F)cc2)C1 (stereo not drawn): inactive
- CCn1ccc2c(N3CCCCS3(=O)=O)cc(C(=O)N[C@@H](Cc3ccccc3)[C@H](O)CNC3CCCCC3)cc21: inactive
- Cc1cc(NC2CCN(CC3CCCCC3)CC2)nc(Nc2ccccc2Cl)n1: inactive
- CC1CCc2c(C(=O)N3CCc4ccccc4C3)csc2C1 (stereo not drawn): inactive
- CCN(CC)c1ccc(C(c2ccc(N(CC)CC)cc2)c2cccc([N+](=O)[O-])c2)cc1: inactive
- CC1(CCN2CCC(c3c[nH]c4cnccc34)CC2)CCCc2c(Br)cccc2C1=O (stereo not drawn): inactive
- O=C(Nc1nc2cc(S(=O)(=O)NCc3ccc(Cl)c(Cl)c3)ccc2n1CCCN1CCCC1)c1ccc(Cl)cc1: active
- CCCCCCCN1CC[C@@H](CCC(O)c2ccnc3ccc(OC)cc23)[C@@H](CC)C1 (stereo partly drawn): inactive
- COc1ccc(CN2CCC(NCc3cccc([N+](=O)[O-])c3)CC2)cc1: inactive
- COc1cc(NC(=O)CCCN2CCN(c3cccc(Cl)c3Cl)CC2)ccc1N1CCN(C(C)C)CC1: inactive
- CCOC(=O)/C(=N\OC(C(=O)OC(C)(C)C)c1ccccc1)c1csc(NC(c2ccccc2)(c2ccccc2)c2ccccc2)n1 (stereo not drawn): inactive
- Clc1ccc(OCc2ccccc2)c(-c2nc(-c3nc4ncc(Br)cc4[nH]3)cs2)c1: inactive
- CS(=O)(=O)N(c1cccc(F)c1)c1cc(C(=O)N[C@@H](Cc2ccccc2)[C@H](O)CNCc2cccc(C(F)(F)F)c2)cc(N2CCCC2=O)c1: inactive
- CC(C)N1CCN(C(CN2CCN(CCCOc3cccc4ccccc34)CC2)c2ccc(F)cc2)CC1 (stereo not drawn): active
- CC(=O)c1ccc2nc[nH]c(=O)c2c1: active
- CN(C)CCNCc1cccc(-c2cccc(-c3nc4ccccc4[nH]3)c2)c1: inactive
- C=CCN(c1nc(NC)nc(NCc2c(OC)cccc2OC)n1)C1CCCC1: inactive
- CS(=O)(=O)c1ccc2nc(-c3cc(-c4cccc(F)c4)cnc3N)[nH]c2c1: inactive
- C=CCN(c1ccc(OC)cc1)S(=O)(=O)c1ccc(Cl)c(C(=O)Nc2cccc(C#N)c2)c1: inactive
- CN(C)CCCn1c(N)c(-c2nc3ccccc3[nH]2)c2nc(C#N)c(C#N)nc21: active
